The measured values listed here are drawn from patent US10023534B2.

# Test system: Ramos RA1 B cells
# assay.details: Ramos FLIPR Assay (intracellular calcium flux, anti-human IgM stimulated)
# Assay type: cell-based
# run.conditions: Table 4, Comparative Example; read-out: Comparative Example Ramos IC50
pIC50: −log10 of the molar value.
quantity.kind: pIC50

[
  {
    "molecule": "C=CC(=O)N1CCc2c(cccc2-c2c(F)cc(C(N)=O)c3[nH]c4c(c23)CCC(C(F)(F)F)C4)C1 (single isomer, unassigned) [Comparative Example 21]",
    "quantity.kind": "pIC50",
    "value": "< 6.52"
  }
]

###

# target.of.assay: human recombinant Btk (Homo sapiens (Human), UniProt Q06187)
# Sequence (Q06187 whole entry): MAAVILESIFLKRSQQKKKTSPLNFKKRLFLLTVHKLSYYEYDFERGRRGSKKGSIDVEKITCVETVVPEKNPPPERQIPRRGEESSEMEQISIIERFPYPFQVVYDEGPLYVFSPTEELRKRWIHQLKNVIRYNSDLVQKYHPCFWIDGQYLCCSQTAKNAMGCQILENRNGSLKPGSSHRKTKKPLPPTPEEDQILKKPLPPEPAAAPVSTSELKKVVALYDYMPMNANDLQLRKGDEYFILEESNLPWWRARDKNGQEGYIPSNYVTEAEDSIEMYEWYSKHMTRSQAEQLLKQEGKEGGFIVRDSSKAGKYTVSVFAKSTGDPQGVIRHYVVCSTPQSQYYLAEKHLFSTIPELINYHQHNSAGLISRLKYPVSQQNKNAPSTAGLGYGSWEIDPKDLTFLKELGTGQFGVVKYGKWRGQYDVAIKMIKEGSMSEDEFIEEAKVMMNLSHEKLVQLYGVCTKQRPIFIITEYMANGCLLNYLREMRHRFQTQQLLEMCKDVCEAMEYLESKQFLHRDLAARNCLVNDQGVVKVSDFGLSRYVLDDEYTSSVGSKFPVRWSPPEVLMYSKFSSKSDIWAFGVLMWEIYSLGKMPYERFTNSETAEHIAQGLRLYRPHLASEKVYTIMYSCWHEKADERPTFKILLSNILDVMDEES
# assay.details: Human Recombinant Btk Enzyme Assay
# Format: biochemical
# run.conditions: Table 4, Comparative Example; read-out: Comparative Example Btk IC50
pIC50: −log10 of the molar value.

[
  {
    "compound": "C=CC(=O)N1CCc2c(cccc2-c2c(F)cc(C(N)=O)c3[nH]c4c(c23)CC(F)(F)CC4)C1 (single isomer, unassigned)",
    "pIC50": 8.35
  },
  {
    "compound": "C=CC(=O)N1CCSc2c(-c3c(F)cc(C(N)=O)c4[nH]c5ccccc5c34)cccc21 (single isomer, unassigned)",
    "pIC50": 8.36
  },
  {
    "compound": "C=CC(=O)N1CCc2c(cccc2-c2c(F)cc(C(N)=O)c3[nH]c4cc(C(F)(F)F)ccc4c23)C1 (single isomer, unassigned)",
    "pIC50": 7.85
  }
]
